# credit: BindingDB's records for doi:10.1039/c4ob00214h

// IC50 lookup, one value per entry
- target: M-phase inducer phosphatase 2 (Homo sapiens, UniProt P30305)
- Sequence (P30305 whole entry): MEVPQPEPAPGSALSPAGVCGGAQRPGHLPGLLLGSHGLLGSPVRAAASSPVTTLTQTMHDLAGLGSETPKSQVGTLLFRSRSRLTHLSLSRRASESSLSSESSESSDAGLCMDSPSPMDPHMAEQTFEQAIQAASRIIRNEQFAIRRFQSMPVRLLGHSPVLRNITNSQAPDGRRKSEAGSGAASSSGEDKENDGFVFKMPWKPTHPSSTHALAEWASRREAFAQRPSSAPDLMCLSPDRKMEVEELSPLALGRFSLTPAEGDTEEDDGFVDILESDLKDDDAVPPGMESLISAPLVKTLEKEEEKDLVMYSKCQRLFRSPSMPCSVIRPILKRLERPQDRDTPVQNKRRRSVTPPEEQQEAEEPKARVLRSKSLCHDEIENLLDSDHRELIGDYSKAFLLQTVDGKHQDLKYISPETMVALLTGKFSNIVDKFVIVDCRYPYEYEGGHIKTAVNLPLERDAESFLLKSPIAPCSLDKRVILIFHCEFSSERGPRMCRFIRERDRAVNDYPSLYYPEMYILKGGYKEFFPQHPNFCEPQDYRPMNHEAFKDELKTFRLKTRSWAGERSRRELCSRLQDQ
measured-property: IC50

[[record]]
molecule = "CCCCCCCCCCCC/C=C/[C@]12C(=O)O[C@]3(C)O[C@]4(C)OC(=O)C(=C[C@H]1CCCCCCCCCCCC)[C@@H]4[C@@H]32 [Paracaseolide A (13)]"
value_measured = "2.34 µM"

[[record]]
molecule = "CCCCCCCCCCCCC/C=C/[C@@]12C(=O)O[C@@H](C)[C@@H]1[C@H]1C(=CC2CCCCCCCCCCCC)C(=O)O[C@H]1C (some centres undefined)"
value_measured = "3.93 µM"

[[record]]
molecule = "CCCCCCCCCCCCC/C=C/[C@@]12C(=O)O[C@@H](C)[C@@H]1[C@H](C(C)=O)C(C(=O)O)=CC2CCCCCCCCCCCC (some centres undefined)"
value_measured = "0.2 µM"

[[record]]
molecule = "CCCCCCCCCCCC[C@@H]1C=C2C(=O)O[C@@]3(C)O[C@@]4(C)OC(=O)[C@]1(C=O)[C@H]4[C@@H]23"
value_measured = "8.33 µM"


====

Target sequence: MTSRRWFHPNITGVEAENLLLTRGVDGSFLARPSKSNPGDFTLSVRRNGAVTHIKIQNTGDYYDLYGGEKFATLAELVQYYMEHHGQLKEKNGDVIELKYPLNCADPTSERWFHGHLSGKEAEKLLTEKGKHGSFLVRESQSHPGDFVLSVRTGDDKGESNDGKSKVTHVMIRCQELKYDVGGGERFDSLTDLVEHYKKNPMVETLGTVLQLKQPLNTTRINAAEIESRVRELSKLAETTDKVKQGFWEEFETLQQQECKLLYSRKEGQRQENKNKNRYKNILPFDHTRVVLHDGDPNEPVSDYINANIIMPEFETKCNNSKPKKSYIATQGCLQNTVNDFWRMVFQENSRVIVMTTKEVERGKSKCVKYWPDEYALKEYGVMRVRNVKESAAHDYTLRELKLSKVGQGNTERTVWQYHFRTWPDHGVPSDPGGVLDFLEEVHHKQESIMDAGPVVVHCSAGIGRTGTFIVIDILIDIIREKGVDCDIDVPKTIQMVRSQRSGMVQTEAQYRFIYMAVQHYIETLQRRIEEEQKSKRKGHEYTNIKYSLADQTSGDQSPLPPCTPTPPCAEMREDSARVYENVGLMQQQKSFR
pIC50: −log10 of the molar value.
measured-property: pIC50

[[record]]
smiles_string = "CCCCCCCCCCCCC/C=C/[C@@]12C(=O)O[C@@H](C)[C@@H]1[C@H](C(C)=O)C(C(=O)O)=C[C@H]2CCCCCCCCCCCC"
value_measured = 5.50

